Read-out record for Cathepsin S (Homo sapiens): Ki
recorded_endpoint: Ki (nM)

1. CN(C#N)N(C)C(=O)[C@H](CC1CCCCC1)NC(=O)OCc1ccccc1
2. CC(C)C[C@H](NC(=O)OCc1ccccc1)C(=O)N(C)N(C)C#N
-- ask Hey, which is lower on measured Ki, 1 or 2 ? Write down the label attached to your selection.
-- reply 1

====

molecular target: Cathepsin B (Homo sapiens, UniProt P07858); assay: Inhibition of human recombinant cathepsin B after 30 mins by spectrophotometric assay
recorded_endpoint: Ki (pM)

In the examples that follow, each entry is paired with its recorded Ki.
-- ask Consider the molecule shown here: CC(C)C[C@H](NC(=O)NCc1ccccc1)C(=O)N(C)N(C)C#N What is its recorded Ki?
-- reply 650

-- ask Same again, this time with CC(C)C[C@H](NC(=O)OCc1ccccc1)C(=O)N(C)N(C)C#N
-- reply 430

I. CC(C)C[C@H](NC(=O)c1ccc(-c2noc(-c3cccs3)n2)cc1)C(=O)N(C)N(C)C#N
II. CC(C)C[C@H](NC(=O)NCc1ccc(-c2noc(-c3cccs3)n2)cc1)C(=O)N(C)N(C)C#N
III. CN(C#N)N(C)C(=O)[C@H](Cc1ccccc1)NC(=O)OCc1ccccc1
-- ask Please order the records by their reported Ki, lowest number first. Write the labels out in the order the request specifies.
-- reply I, III, II

====

target: Cathepsin B (Homo sapiens); assay: Inhibition of human recombinant cathepsin B after 30 mins by spectrophotometric assay
pKi: −log10 of the molar value.
recorded_endpoint: pKi

Solved entries (count: 2):
-- ask Name the reported pKi value associated with the compound Cc1nc(-c2ccc(CNC(=O)N[C@@H](CC(C)C)C(=O)N(C)N(C)C#N)cc2)no1
-- reply 8.55

-- ask Input CC(C)C[C@H](NC(=O)Nc1ccccc1)C(=O)N(C)N(C)C#N
-- reply 8.89

I. Cc1nc(-c2ccc(NC(=O)N[C@@H](CC(C)C)C(=O)N(C)N(C)C#N)cc2)no1
II. CN(C#N)N(C)C(=O)[C@H](Cc1ccc(O)cc1)NC(=O)OCc1ccccc1
III. CC[C@H](C)[C@H](NC(=O)OCc1ccccc1)C(=O)N(C)N(C)C#N
IV. C[C@H](NC(=O)OCc1ccccc1)C(=O)N(C)N(C)C#N
-- ask Arrange the 4 compounds by rising pKi, starting with the smallest. Write the labels, ordered according to the request.
-- reply IV, I, III, II

====

target: Cathepsin B (Homo sapiens); experiment: Inhibition of human recombinant cathepsin B after 30 mins by spectrophotometric assay
recorded_endpoint: Ki (nM)

-- ask Query (compound): CC(C)[C@H](NC(=O)OCc1ccccc1)C(=O)N(C)N(C)C#N ; field requested: Ki
-- reply 4.3

-- ask Also CC(C)C[C@@H](C(=O)N(C)N(C)C#N)N(C)C(=O)c1ccc(-c2noc(-c3cccs3)n2)cc1 , if possible.
-- reply 510

-- ask Also CN(C#N)N(C)C(=O)CNC(=O)OCc1ccccc1 ?
-- reply 840

P. CN(C#N)N(C)C(=O)[C@H](CC1CCCCC1)NC(=O)OCc1ccccc1
Q. CC(C)C[C@H](NC(=O)Nc1ccc(-c2noc(-c3cccs3)n2)cc1)C(=O)N(C)N(C)C#N
-- ask Given the listed records, identify the one among P and Q with higher Ki. State the label of the item chosen.
-- reply Q

====

molecular target: Cathepsin K (Homo sapiens); assay: Inhibition of human recombinant cathepsin K after 30 mins by spectrophotometric assay
Sequence (P43235 whole entry): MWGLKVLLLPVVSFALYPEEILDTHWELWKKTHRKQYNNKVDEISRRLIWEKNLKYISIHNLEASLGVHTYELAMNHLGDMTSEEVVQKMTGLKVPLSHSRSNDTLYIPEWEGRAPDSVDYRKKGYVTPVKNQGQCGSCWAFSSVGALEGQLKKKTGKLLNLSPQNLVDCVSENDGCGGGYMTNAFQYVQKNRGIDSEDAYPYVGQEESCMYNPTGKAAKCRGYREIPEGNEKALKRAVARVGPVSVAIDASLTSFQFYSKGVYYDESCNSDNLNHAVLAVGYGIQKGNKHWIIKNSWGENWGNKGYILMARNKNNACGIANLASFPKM
recorded_endpoint: Ki (nM)

A selection of reference data follows.
-- ask # input molecule: CC(C)C[C@H](NC(=O)c1ccc(-c2noc(-c3cccs3)n2)cc1)C(=O)N(C)N(C)C#N ; wanted: its Ki
-- reply 0.032

-- ask Proceed to C[C@H](NC(=O)OCc1ccccc1)C(=O)N(C)N(C)C#N
-- reply 33

-- ask Would you kindly repeat that for CC(C)C[C@H](NC(=O)NCc1ccccc1)C(=O)N(C)N(C)C#N ?
-- reply 0.011

-- ask Continue with CC(C)C[C@H](NC(=O)Nc1ccc(-c2noc(-c3cccs3)n2)cc1)C(=O)NCC#N
-- reply 34

-- ask // next record Cc1nc(-c2ccc(CNC(=O)N[C@@H](CC(C)C)C(=O)N(C)N(C)C#N)cc2)no1
-- reply 0.11

-- ask What about this molecule? CN(C#N)N(C)C(=O)[C@H](CC1CCCCC1)NC(=O)OCc1ccccc1
-- reply 0.071

-- ask Now this one: CC(C)C[C@@H](C(=O)N(C)N(C)C#N)N(C)C(=O)c1ccc(-c2noc(-c3cccs3)n2)cc1
-- reply 0.63

-- ask Next record, please: CC(C)C[C@H](NC(=O)c1ccc(-c2noc(-c3cccs3)n2)cc1)C(=O)NCC#N
-- reply 2.9

A. CN(C#N)N(C)C(=O)CNC(=O)OCc1ccccc1
B. Cc1nc(-c2ccc(NC(=O)N[C@@H](CC(C)C)C(=O)N(C)N(C)C#N)cc2)no1
C. CC(C)C[C@H](NC(=O)Nc1ccccc1)C(=O)N(C)N(C)C#N
D. CN(C#N)N(C)C(=O)[C@H](Cc1ccc(O)cc1)NC(=O)OCc1ccccc1
-- ask # rank_down: sort by Ki, max first Answer by writing out the labels in the requested order.
-- reply A, D, B, C

A. CC(C)C[C@H](NC(=O)Nc1ccc(-c2noc(-c3cccs3)n2)cc1)C(=O)N(C)N(C)C#N
B. CC(C)C[C@H](NC(=O)NCc1ccc(-c2noc(-c3cccs3)n2)cc1)C(=O)N(C)N(C)C#N
C. CC(C)C[C@@H](C(=O)NCC#N)N(C)C(=O)c1ccc(-c2noc(-c3cccs3)n2)cc1
D. CN(C#N)N(C)C(=O)[C@H](Cc1ccccc1)NC(=O)OCc1ccccc1
E. CC[C@H](C)[C@H](NC(=O)OCc1ccccc1)C(=O)N(C)N(C)C#N
-- ask Please give the order of these molecules when sorted by Ki, largest value leading. List the labels according to the requested ordering.
-- reply C, E, D, B, A
(C: 270 nM, E: 0.46 nM, D: 0.14 nM, B: 0.072 nM, A: 0.022 nM)

a. CC(C)C[C@H](NC(=O)OCc1ccccc1)C(=O)N(C)N(C)C#N
b. CC(C)[C@H](NC(=O)OCc1ccccc1)C(=O)N(C)N(C)C#N
-- ask Lab note: record which item had the higher Ki, a or b . Record your answer as the label of the chosen record.
-- reply b
(b: 0.87 nM, a: 0.064 nM)
